# Test system: CDK9
# stated.conditions: Compound Concentration (nM):1000;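 further: KINOMEscan scanMAX binding as percent activity remaining versus control; lower means stronger binding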
Overview of reported Percent Control across a group of compounds:
Note: unit % is implicit; provide only the numeric part.

Guide cases for Percent Control, answers given:
# compound, Percent Control [%]
measured = [
    ("Cl.O=C(O[C@H]1CN[C@H](C#Cc2cc3ncnc(Nc4ccc5c(cnn5Cc5ccccc5)c4)c3s2)C1)N1CCOCC1 [GSK200398A]", 87),
    ("COc1cc(N2CCN(C(C)C)CC2)ccc1Nc1nc(Nc2ccc(F)cc2C(=O)NC[C@@H](O)CO)c2cc[nH]c2n1 [GSK1392956A]", 100),
    ("COc1cc2ncn(-c3cc(O[C@H](C)c4ccccc4Cl)c(C(N)=O)s3)c2cc1OC [GSK237701A]", 100),
]

Summary for this compound, Cl.O=S1CCN(Cc2ccc(-c3ccc4ncnc(Nc5ccc(OCc6ccccc6)c(F)c5)c4c3)o2)CC1 [GW576924A] : Percent Control is 100

Summary for this compound, O=C(Nc1n[nH]c2nc(-c3ccc(O)cc3)c(Br)cc12)C1CC1 [SB-725317] : Percent Control is 95

Summary for this compound, COC(=O)Nc1nc2ccc(Oc3ccc(NC(=O)Nc4cc(C(F)(F)F)ccc4F)cc3)cc2s1.Cl [GW693917A] : Percent Control is 86

Summary for this compound, CC1=C(C(=O)Nc2ccc3[nH]ncc3c2)C(c2ccc(Cl)c(Cl)c2)CC(=O)N1 (centres unmarked) [GSK299115A] : Percent Control is 100

Summary for this compound, COc1ccc2cc(-c3c(-c4ccncc4)nc(-c4ccc(S(C)(=O)=O)cc4C)n3C)ccc2c1 [SB-633825] : Percent Control is 74

---

Overview of reported Percent Control across a group of compounds:
# Tested on: PRKD2
# stated.conditions: Compound Concentration (nM):1000
Note: unit % is implicit; provide only the numeric part.

Guide cases for Percent Control, answers given:
# compound, measure.unit, measurement
measured = [
    ("COc1ccc2c(-c3ccnc(Nc4cccc(OC(F)(F)F)c4)n3)cnn2n1 [GW810372X]", "%", 100),
    ("CCS(=O)(=O)c1ccc(OC)c(Nc2ncc(-c3cccc(F)c3)o2)c1 [GW621970X]", "%", 100),
    ("COc1cccc(-c2c[nH]c3c(N/N=C/c4ccncc4)ncnc23)c1 [GW814408X]", "%", 100),
    ("CN(C)c1cc2c(Nc3ccc4c(cnn4Cc4ccccc4)c3)ncnc2cn1 [GW282974X]", "%", 95),
]

Summary for this compound, Cl.O=C(Nc1ccc(Oc2ccc3[nH]c(NC(=O)c4ccccc4)nc3c2)cc1)Nc1cc(C(F)(F)F)ccc1F [GW709042A] : Percent Control is 100

---

# Test system: PIK3CA(C420R)
# stated.conditions: Compound Concentration (nM):1000
Overview of reported Percent Control across a group of compounds:
Note: unit % is implicit; provide only the numeric part.

Guide cases for Percent Control, answers given:
# compound, Percent Control, %
records = [
    ("NS(=O)(=O)c1ccc(N/N=C2\\C(=O)Nc3ccc(C(=O)NCCc4c[nH]cn4)cc32)cc1 [GW300660X]", 100),
    ("O=C(Nc1n[nH]c2nc(-c3ccc(O)cc3)c(Br)cc12)C1CC1", 92),
    ("COc1cc2ncn(-c3cc(O[C@H](C)c4ccccc4Cl)c(C(N)=O)s3)c2cc1OC [GSK237701A]", 65),
    ("Cc1cc(O)cc(C)c1/C=C/c1cncc(C(N)=O)c1 [GW435821X]", 100),
]

Next:
Summary for this compound, Nc1ncnc2occ(-c3ccc(NC(=O)Nc4cc(C(F)(F)F)ccc4F)cc3)c12 [GW770249X] : Percent Control is 100

Just for reference, paper PMC7826789 is where these values come from.
